Assignment: determine reported self-cleavage kobs at 2500 uM GlcN6P for the given variants.
B1: glmS ribozyme (parent)
chain: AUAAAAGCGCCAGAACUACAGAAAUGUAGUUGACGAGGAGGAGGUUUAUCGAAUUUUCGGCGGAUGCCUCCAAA

Variants of: B1
PROCEDURE TEXT: self-cleavage kobs at 2500 uM GlcN6P; higher = faster cleavage; RNA array
SETUP CONDITIONS: with glucosamine-6-phosphate
Fewer inactive variants are shown than the library holds.

Q) Would you kindly share the measured self-cleavage kobs at 2500 uM GlcN6P for C58U C61G ?
A) 2.9e-05 s⁻¹

Q) Do the same for C10A C11G A12C G13U please
A) < 1e-05 s⁻¹

Q) Lookup A39U U55G
A) 0.00715 s⁻¹

Q) What do we get for C8G G13U ?
A) < 1e-05 s⁻¹

Q) Follow-up item: G41C C68G
A) < 1e-05 s⁻¹

Q) Next record, please: A6C C70U
A) 7.26e-05 s⁻¹

Q) What do you get for C8U A14G G37A A39U G40U U47A C58G U65G C70U ?
A) < 1e-05 s⁻¹

Q) Queued: G7C G59C
A) < 1e-05 s⁻¹

Q) And the next one, G37A G51A C71A ?
A) < 1e-05 s⁻¹

Q) Same lookup for G7U A36G , please.
A) < 1e-05 s⁻¹

Q) Also, A14C G40A G60U please.
A) < 1e-05 s⁻¹

Q) Query C11A G37C G38U next
A) < 1e-05 s⁻¹

Q) Also check U30A A36U C71A
A) < 1e-05 s⁻¹

Q) Another: G29A G35U A42U
A) < 1e-05 s⁻¹

Q) Likewise for G32U G63A ?
A) < 1e-05 s⁻¹

Q) For C50U G51C then?
A) < 1e-05 s⁻¹
